- target.or.system: T1, soluble human ILT4-ECD (human, UniProt Q8N423 22-460)
- T1 construct: also called LILRB2 extracellular domain
- T1 sequence (Q8N423 other isoform, or with tags, fused parts or gaps): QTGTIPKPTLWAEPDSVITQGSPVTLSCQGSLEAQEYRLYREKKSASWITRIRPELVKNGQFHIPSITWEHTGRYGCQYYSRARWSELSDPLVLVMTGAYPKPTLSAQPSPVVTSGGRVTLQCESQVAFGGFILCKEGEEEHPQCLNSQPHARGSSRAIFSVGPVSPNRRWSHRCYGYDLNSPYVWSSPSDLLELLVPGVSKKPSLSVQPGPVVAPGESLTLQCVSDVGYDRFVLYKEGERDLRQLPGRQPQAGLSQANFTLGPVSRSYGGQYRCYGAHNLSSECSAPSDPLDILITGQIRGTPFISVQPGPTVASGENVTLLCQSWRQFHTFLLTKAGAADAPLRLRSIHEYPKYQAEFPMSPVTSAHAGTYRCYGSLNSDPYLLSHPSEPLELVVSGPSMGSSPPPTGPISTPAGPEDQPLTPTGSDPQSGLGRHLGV
- test.details: SPR (Biacore), antibody captured on Protein A chip, soluble ILT-ECD injected (1.6-200 nM), 25 C
observation.type: koff

Q. So what's the measured koff for this one? anti-ILT4 antibody 48A5 (antibody, V domains shown, Mouse hybridoma antibody; also called clone 48A5; anti-ILT4 (48A5)) VH: QIQLVQSGPELKKPGETVKISCKASGYTFTNYGMNWVKQAPGKGLKWMGWINTYIGEPIYADDFKGRFAFSLETSASTAYLQINNLKNEDMATYFCARRSDYDGYAMDYWGQGTSVTVSS VL: DIVMSQSPSSLAVSVGERVTMSCKSSQSLLYSGNQKNYLAWYQQKPGQSPKLLIYWASTRESGVPDRFTGSGSGTDFTLTISSVKAEDLAVYYCQQHDSYPTFGGGSRLEIK
A. 2.1e-05 s⁻¹
